Property: C50; scope: individual binders
system_name: HLA-A1 (HLA-A*0101) (human)
experiment_summary: assembly assay: HLA stabilisation, TAP-deficient cell lysate, W6/32 IP, IEF gel
measurement_kind: C50 (µM)

[
  {
    "binder": "FEELTLGEF (also called Survivin93-101) [Sur93-101]",
    "u": "µM",
    "cmp": ">",
    "quantitative_readout": 100
  },
  {
    "binder": "PTENEPDLAY (Sur47-56 with Q changed to Y at P10) [Sur47Y10]",
    "u": "µM",
    "cmp": "=",
    "quantitative_readout": 0.4
  },
  {
    "binder": "FSELTLGEF (Sur93-101 with S at position 2) [Sur93S2]",
    "u": "µM",
    "cmp": "=",
    "quantitative_readout": 30
  },
  {
    "binder": "QFEELTLGEF (also called Survivin92-101) [Sur92-101]",
    "u": "µM",
    "cmp": "=",
    "quantitative_readout": 2
  },
  {
    "binder": "QTEELTLGEF (Sur92-101 with T at position 2) [Sur92T2]",
    "u": "µM",
    "cmp": "=",
    "quantitative_readout": 2
  },
  {
    "binder": "FTELTLGEF (Sur93-101 with T at position 2) [Sur93T2]",
    "u": "µM",
    "cmp": "=",
    "quantitative_readout": 1
  },
  {
    "binder": "QSEELTLGEF (Sur92-101 with S at position 2) [Sur92S2]",
    "u": "µM",
    "cmp": "=",
    "quantitative_readout": 100
  },
  {
    "binder": "MAEAGFIHY (Sur38-46 with C changed to Y at P9) [Sur38Y9]",
    "u": "µM",
    "cmp": "=",
    "quantitative_readout": 0.8
  }
]
